Reference source: paper PMC3713010

Biological target: T1, Brn2 DNA-binding domain (BD-Brn2) (Mus musculus (B6), UniProt P31360 336-435)
T1 sequence: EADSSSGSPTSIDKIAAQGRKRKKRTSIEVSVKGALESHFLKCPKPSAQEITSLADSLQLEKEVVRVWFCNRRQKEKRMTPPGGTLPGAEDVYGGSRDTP
Test: EMSA; 10% glycerol, 20 mM HEPES pH 7.8, 45 mM KCl, 10 mM NaCl, 1 mM EDTA, 1 mM DTT, 0.2 ug/uL BSA, 0.1% NP-40, 50 ng poly-dIdC; 20 ng each GST protein; room temperature 30 min (heterodimers 4 C); 6% PAGE 0.25x TBE
Details: protein: recombinant; tags: GST (N-terminal, pGEX-6P-1); label: 32P-dCTP fill-in of the 5' (dG)5 overhangs of both strands (Methods; control probes are given with GGG)

{"columns": ["binder", "binding result"],
 "data": [
  ["85 (dsDNA) DNA 1: GGGGGACATATGCAATTGTTTCCTGTATTATAGTAGAGATCCCCC DNA 2: GGGGGATCTCTACTATAATACAGGAAACAATTGCATATGTCCCCC", "no binding"],
  ["31 (dsDNA) DNA 1: GGGGGTCCTCTCCTTTGTTTTGTCCTCACACCCCCAGCTGACCAGGTGCCCCC DNA 2: GGGGGCACCTGGTCAGCTGGGGGTGTGAGGACAAAACAAAGGAGAGGACCCCC", "no binding"],
  ["77 (dsDNA) DNA 1: GGGGGTATGTCTATTTGTTTTTTATTTTTTGAAGACTCCCCC DNA 2: GGGGGAGTCTTCAAAAAATAAAAAACAAATAGACATACCCCC", "no binding"]
]}
